// normalized DsRed fluorescence lookup, one value per entry
- Test system: Staphylococcus aureus MW2 (mecA+)
- TEST: normalized DsRed fluorescence (growth of mecA+ strain) (fraction of control range); higher = more growth of mecA+ strain
- MEASUREMENT CONTEXT: compound concentration: 150 uM; cefoxitin: subinhibitory; fluorescent label: DsRed
Structures can show the parent of a compound that is named as a salt.
OUTCOME MEASURE: normalized DsRed fluorescence

molecule=COCCCC/C(=N\OCCN)c1ccc(C(F)(F)F)cc1 reported_value=0.562
molecule="CC(C)(C)c1ccc(C(O)CCCN2CCC(C(O)(c3ccccc3)c3ccccc3)CC2)cc1 (stereo not given)" reported_value=0.056
molecule=CCOC(=O)C1=C[C@@H](OC(CC)CC)[C@H](NC(C)=O)[C@@H](N)C1 reported_value=0.588
molecule=CN1CCC(OC(c2ccccc2)c2ccccc2)CC1 reported_value=1.1
molecule="CN1CCC(=C2c3ccccc3CC(=O)c3sccc32)CC1 [Ketotifen fumarate (Zaditor)]" reported_value=0.799
molecule=O=C(O)CCNC(=O)c1ccc(/N=N/c2ccc(O)c(C(=O)O)c2)cc1 reported_value=0.891
molecule=Cc1ccnc2c1NC(=O)c1cccnc1N2C1CC1 reported_value=0.431
molecule="CC(C)NCC(O)COc1cccc2ccccc12 (stereo not given)" reported_value=1.24
molecule="Cc1nccn1CC1CCc2c(c3ccccc3n2C)C1=O (stereo not given)" reported_value=0.626
molecule="CC(C)C(=O)Oc1ccc(CO)cc1[C@H](CCN(C(C)C)C(C)C)c1ccccc1 [Fesoterodine fumarate (Toviaz)]" reported_value=1.38

---

- System: Staphylococcus aureus MW2 delta-mecA (mecA-)
- TEST: normalized GFP fluorescence (growth of mecA- strain) (fraction of control range); higher = more growth of mecA- strain
- MEASUREMENT CONTEXT: compound concentration: 150 uM; cefoxitin: subinhibitory; fluorescent label: GFP
OUTCOME MEASURE: normalized GFP fluorescence

compound="CCOC(=O)O[C@]1(C(=O)OCCl)CC[C@H]2[C@@H]3CCC4=CC(=O)C=C[C@]4(C)[C@H]3[C@@H](O)C[C@@]21C [Loteprednol etabonate]" outcome_measure="normalized GFP fluorescence" reported_value=0.281
compound="C[C@@H]1NC(=O)[C@@H](N)CNC(=O)[C@H](C2CCNC(=N)N2)NC(=O)/C(=C/NC(N)=O)NC(=O)[C@H](CNC(=O)CC(N)CCCN)NC1=O.N=C1NCCC([C@@H]2NC(=O)/C(=C/NC(N)=O)NC(=O)[C@H](CNC(=O)CC(N)CCCN)NC(=O)[C@H](CO)NC(=O)[C@@H](N)CNC2=O)N1 (some centres undefined)" outcome_measure="normalized GFP fluorescence" reported_value=0.494
compound=CN1[C@@H]2CC[C@H]1C[C@@H](OC(=O)c1c[nH]c3ccccc13)C2 outcome_measure="normalized GFP fluorescence" reported_value=0.528
compound=CC(=O)OCC(=O)[C@@]12N=C(C)O[C@@H]1C[C@H]1[C@@H]3CCC4=CC(=O)C=C[C@]4(C)[C@H]3[C@@H](O)C[C@@]12C outcome_measure="normalized GFP fluorescence" reported_value=0.231

---

- System: Staphylococcus aureus MW2 (mecA+)
- TEST: normalized DsRed fluorescence (growth of mecA+ strain) (fraction of control range); higher = more growth of mecA+ strain
- MEASUREMENT CONTEXT: compound concentration: 150 uM; cefoxitin: subinhibitory; fluorescent label: DsRed
Structures can show the parent of a compound that is named as a salt.
// normalized DsRed fluorescence lookup, one value per entry
OUTCOME MEASURE: normalized DsRed fluorescence

molecule=CN(C)c1cc(NC(=O)CNC(C)(C)C)c(O)c2c1C[C@H]1C[C@H]3[C@H](N(C)C)C(O)=C(C(N)=O)C(=O)[C@@]3(O)C(O)=C1C2=O tested_on="Staphylococcus aureus MW2 (mecA+)" outcome_measure="normalized DsRed fluorescence" reported_value=0.779
molecule=Cc1cc(NS(=O)(=O)c2ccc(N)cc2)no1 tested_on="Staphylococcus aureus MW2 (mecA+)" outcome_measure="normalized DsRed fluorescence" reported_value=0.744
molecule=C[C@@H]1[C@H](O)[C@@H](C)/C=C/C=C/C=C/C=C/C=C/C=C/C=C/[C@H](O[C@@H]2O[C@H](C)[C@@H](O)[C@H](N)[C@@H]2O)C[C@@H]2O[C@](O)(C[C@@H](O)C[C@@H](O)[C@H](O)CC[C@@H](O)C[C@@H](O)CC(=O)O[C@H]1C)C[C@H](O)[C@H]2C(=O)O tested_on="Staphylococcus aureus MW2 (mecA+)" outcome_measure="normalized DsRed fluorescence" reported_value=0.735
molecule="CCOC(=O)[C@H](CCc1ccccc1)N[C@@H](C)C(=O)N1Cc2cc(OC)c(OC)cc2C[C@H]1C(=O)O [Moexipril HCl]" tested_on="Staphylococcus aureus MW2 (mecA+)" outcome_measure="normalized DsRed fluorescence" reported_value=0.48
molecule=N#Cc1ccc(C(c2ccc(C#N)cc2)n2cncn2)cc1 tested_on="Staphylococcus aureus MW2 (mecA+)" outcome_measure="normalized DsRed fluorescence" reported_value=0.758
molecule=Cc1cc2c(s1)Nc1ccccc1N=C2N1CCN(C)CC1 tested_on="Staphylococcus aureus MW2 (mecA+)" outcome_measure="normalized DsRed fluorescence" reported_value=0.803
molecule=C[C@H](NCc1ccc(OCc2cccc(F)c2)cc1)C(N)=O tested_on="Staphylococcus aureus MW2 (mecA+)" outcome_measure="normalized DsRed fluorescence" reported_value=0.675
molecule=C[C@@H]1C[C@H]2[C@@H]3CCC4=CC(=O)C=C[C@]4(C)[C@@]3(Cl)[C@@H](O)C[C@]2(C)[C@@]1(OC(=O)c1ccco1)C(=O)CCl tested_on="Staphylococcus aureus MW2 (mecA+)" outcome_measure="normalized DsRed fluorescence" reported_value=1.18
molecule=CC(=O)OCC(=O)[C@@]12N=C(C)O[C@@H]1C[C@H]1[C@@H]3CCC4=CC(=O)C=C[C@]4(C)[C@H]3[C@@H](O)C[C@@]12C tested_on="Staphylococcus aureus MW2 (mecA+)" outcome_measure="normalized DsRed fluorescence" reported_value=0.567
molecule=Nc1ccc(S(=O)(=O)Nc2ccccn2)cc1 tested_on="Staphylococcus aureus MW2 (mecA+)" outcome_measure="normalized DsRed fluorescence" reported_value=0.542
molecule=CNCCCN1c2ccccc2CCc2ccccc21 tested_on="Staphylococcus aureus MW2 (mecA+)" outcome_measure="normalized DsRed fluorescence" reported_value=1.99
molecule="CCCc1cc(C(N)=S)ccn1 [Protionamide (Prothionamide)]" tested_on="Staphylococcus aureus MW2 (mecA+)" outcome_measure="normalized DsRed fluorescence" reported_value=0.698
molecule="Clc1ccc(COC(Cn2ccnc2)c2ccc(Cl)cc2Cl)cc1 (stereo unspecified) [Econazole nitrate (Spectazole)]" tested_on="Staphylococcus aureus MW2 (mecA+)" outcome_measure="normalized DsRed fluorescence" reported_value=0.01
molecule="CN1CCC[C@@H]1CCO[C@](C)(c1ccccc1)c1ccc(Cl)cc1 [Clemastine Fumarate]" tested_on="Staphylococcus aureus MW2 (mecA+)" outcome_measure="normalized DsRed fluorescence" reported_value=0.338
molecule=CN1C(C(=O)Nc2ccccn2)=C(O)c2ccccc2S1(=O)=O tested_on="Staphylococcus aureus MW2 (mecA+)" outcome_measure="normalized DsRed fluorescence" reported_value=0.661
molecule=CN1CCN(C(c2ccccc2)c2ccccc2)CC1 tested_on="Staphylococcus aureus MW2 (mecA+)" outcome_measure="normalized DsRed fluorescence" reported_value=1.32
molecule=Cc1cc(O)cc(C)c1Cl tested_on="Staphylococcus aureus MW2 (mecA+)" outcome_measure="normalized DsRed fluorescence" reported_value=0.544
molecule="CCCNC(C)C(=O)Nc1c(C)csc1C(=O)OC (stereo unspecified) [Articaine HCl]" tested_on="Staphylococcus aureus MW2 (mecA+)" outcome_measure="normalized DsRed fluorescence" reported_value=0.672
molecule=CCCNC(=O)NS(=O)(=O)c1ccc(Cl)cc1 tested_on="Staphylococcus aureus MW2 (mecA+)" outcome_measure="normalized DsRed fluorescence" reported_value=0.489
molecule=COc1ccc2[nH]cc(CCNC(C)=O)c2c1 tested_on="Staphylococcus aureus MW2 (mecA+)" outcome_measure="normalized DsRed fluorescence" reported_value=0.734
molecule=CC[C@@H]([C@H](C)O)n1ncn(-c2ccc(N3CCN(c4ccc(OC[C@@H]5CO[C@@](Cn6cncn6)(c6ccc(F)cc6F)C5)cc4)CC3)cc2)c1=O tested_on="Staphylococcus aureus MW2 (mecA+)" outcome_measure="normalized DsRed fluorescence" reported_value=0.572
molecule=Cn1c(=O)c2nc[nH]c2n(C)c1=O tested_on="Staphylococcus aureus MW2 (mecA+)" outcome_measure="normalized DsRed fluorescence" reported_value=0.42
molecule="CCC1(C)CC(=O)NC1=O (stereo unspecified)" tested_on="Staphylococcus aureus MW2 (mecA+)" outcome_measure="normalized DsRed fluorescence" reported_value=0.691
molecule=C[C@H]1O[C@@H](O[C@H]2[C@@H](O)C[C@H](O[C@H]3[C@@H](O)C[C@H](O[C@H]4CC[C@@]5(C)[C@H](CC[C@@H]6[C@@H]5CC[C@]5(C)[C@@H](C7=CC(=O)OC7)CC[C@]65O)C4)O[C@@H]3C)O[C@@H]2C)C[C@H](O)[C@@H]1O tested_on="Staphylococcus aureus MW2 (mecA+)" outcome_measure="normalized DsRed fluorescence" reported_value=0.724
molecule=O=C(NCCO[N+](=O)[O-])c1cccnc1 tested_on="Staphylococcus aureus MW2 (mecA+)" outcome_measure="normalized DsRed fluorescence" reported_value=0.986
molecule=OC(Cn1cncn1)(Cn1cncn1)c1ccc(F)cc1F tested_on="Staphylococcus aureus MW2 (mecA+)" outcome_measure="normalized DsRed fluorescence" reported_value=0.746
molecule=CC(=O)OCC(=O)[C@@]1(OC(C)=O)[C@@H](C)C[C@H]2[C@@H]3C[C@H](F)C4=CC(=O)C=C[C@]4(C)[C@@]3(F)[C@@H](O)C[C@@]21C tested_on="Staphylococcus aureus MW2 (mecA+)" outcome_measure="normalized DsRed fluorescence" reported_value=1.11
molecule=O=P(O)(O)C(O)(Cc1cccnc1)P(=O)(O)O tested_on="Staphylococcus aureus MW2 (mecA+)" outcome_measure="normalized DsRed fluorescence" reported_value=0.671
molecule=Cn1cnc([N+](=O)[O-])c1Sc1ncnc2[nH]cnc12 tested_on="Staphylococcus aureus MW2 (mecA+)" outcome_measure="normalized DsRed fluorescence" reported_value=1.03
molecule=CC(C)c1nc(N(C)S(C)(=O)=O)nc(-c2ccc(F)cc2)c1/C=C/[C@@H](O)C[C@@H](O)CC(=O)O tested_on="Staphylococcus aureus MW2 (mecA+)" outcome_measure="normalized DsRed fluorescence" reported_value=0.514
molecule=CC(=O)OCC(=O)[C@@]1(O)CC[C@H]2[C@@H]3CCC4=CC(=O)CC[C@]4(C)[C@@]3(F)[C@@H](O)C[C@@]21C tested_on="Staphylococcus aureus MW2 (mecA+)" outcome_measure="normalized DsRed fluorescence" reported_value=0.642
molecule=CCN(CCCc1ccccc1)CCCc1ccccc1 tested_on="Staphylococcus aureus MW2 (mecA+)" outcome_measure="normalized DsRed fluorescence" reported_value=1.17
molecule=CC(=O)c1ccc(S(=O)(=O)NC(=O)NC2CCCCC2)cc1 tested_on="Staphylococcus aureus MW2 (mecA+)" outcome_measure="normalized DsRed fluorescence" reported_value=0.729
molecule=O=C(c1ccc(OCCN2CCCCC2)cc1)c1c(-c2ccc(O)cc2)sc2cc(O)ccc12 tested_on="Staphylococcus aureus MW2 (mecA+)" outcome_measure="normalized DsRed fluorescence" reported_value=0.747
molecule="CC1CCC(NC(=O)N(CCCl)N=O)CC1 (stereo unspecified)" tested_on="Staphylococcus aureus MW2 (mecA+)" outcome_measure="normalized DsRed fluorescence" reported_value=0.439
molecule=CCCCC1=NC2(CCCC2)C(=O)N1Cc1ccc(-c2ccccc2-c2nnn[nH]2)cc1 tested_on="Staphylococcus aureus MW2 (mecA+)" outcome_measure="normalized DsRed fluorescence" reported_value=0.337
